These entries and their values trace back to PubChem BioAssay AID1159580.

- test name: chemical genetic growth profiling, strain panel (AID 1159580);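 also: tested at 20 µM; growth read once vehicle control cultures reached saturation at 30 °C; 1 = growth at the plate median or of vehicle wells; lower values mean less growth of the strain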
- measurement conditions: S. cerevisiae deletion strains, growth OD, locus YJL164C, strain tpk1, stronger effect = lower value
Among all 5,500 compounds or so, about 2,000 (36%) were called active. About 18% were inconclusive and are not listed. Some of the results follow. Where a SMILES comes first, the peptide text is derived from it. Bridges are numbered along the chain shown (N, C = ends). [ ]: non-standard residue; d: D form. The star is where a group is joined. Octanoyl(6-Me) = CCC(C)CCCCC(=O)*; Dab = NCC[CH](N)C(=O)O
Overview of recorded normalized growth for various compounds
endpoint name: normalized growth

compound	reported
CCCCc1nc(Cl)c(CO)n1Cc1ccc(-c2ccccc2-c2nn[nH]n2)cc1	1
C#C[C@]1(O)CCC2C3CCC4=Cc5oncc5C[C@]4(C)C3CC[C@@]21C (stereo partly drawn)	0.973
C[C@]12CCC(=O)C=C1CCC1C2[C@@H](O)C[C@@]2(C)C1CC[C@]2(O)C(=O)COC(=O)CCC(=O)O (stereo partly drawn)	1.02
C[C@]12CCC(=O)C=C1CCC1C2C(=O)C[C@@]2(C)C1CC[C@]2(O)C(=O)CO (stereo partly drawn)	0.996
C#CC1(O)CCC2C3CCC4=CC(=O)CCC4(C)C3CCC21C (stereo not drawn)	0.978
CN(C)C(=N)N=C(N)N	0.969
O=C(CCc1ccc(O)cc1)c1c(O)cc(O)cc1O[C@@H]1O[C@H](CO)[C@@H](O)[C@H](O)[C@H]1O	1.02
COc1cc(-c2coc3cc(O[C@@H]4O[C@H](CO)[C@@H](O)[C@H](O)[C@H]4O)c(OC)c(O)c3c2=O)cc(O)c1OC	1
CC1(C)C=Cc2cc3ccc(=O)oc3cc2O1	0.9
CCC(C)CCCCC(=O)NC(CCN)C(=O)NC(C(=O)NC(CCN)C(=O)NC1CCNC(=O)C(C(C)O)NC(=O)C(CCN)NC(=O)C(CCN)NC(=O)C(CC(C)C)NC(=O)C(Cc2ccccc2)NC(=O)C(CCN)NC1=O)C(C)O (stereo not drawn) ({Octanoyl(6-Me)}-[Dab]T[Dab][Dab][Dab]FL[Dab][Dab]T; lactam 4-C; configuration not given here)	0.98
Cc1ccc(N(CC2=NCCN2)c2cccc(O)c2)cc1	1
NCCNCCNCCN	0.997
CNS(=O)(=O)c1ccc(NC(=O)c2ccccc2C(=O)O)cc1	1.01
CC(=O)OCC(=O)[C@@]12OC3(CCCC3)O[C@@H]1CC1C3CCC4=CC(=O)C=C[C@]4(C)[C@@]3(F)[C@@H](O)C[C@@]12C (stereo partly drawn)	1
Cc1cc(C(C)(C)C)cc(C)c1CC1=NCCN1	0.98
CO[C@@]1(NC(=O)Cc2cccs2)C(=O)N2C(C(=O)O)=C(COC(N)=O)CS[C@@H]21	0.98
CC[C@@H](CO)NC(=O)[C@@H]1C=C2c3cccc4[nH]cc(c34)C[C@H]2N(C)C1	0.991
CCOc1cccc(C(=O)c2ccc(O)c(O)c2O)c1	0.811
